Please provide measured EC50 for the entries that follow.
- subjectOfTest: UniProt:P21453
- Sequence (P21453 whole entry): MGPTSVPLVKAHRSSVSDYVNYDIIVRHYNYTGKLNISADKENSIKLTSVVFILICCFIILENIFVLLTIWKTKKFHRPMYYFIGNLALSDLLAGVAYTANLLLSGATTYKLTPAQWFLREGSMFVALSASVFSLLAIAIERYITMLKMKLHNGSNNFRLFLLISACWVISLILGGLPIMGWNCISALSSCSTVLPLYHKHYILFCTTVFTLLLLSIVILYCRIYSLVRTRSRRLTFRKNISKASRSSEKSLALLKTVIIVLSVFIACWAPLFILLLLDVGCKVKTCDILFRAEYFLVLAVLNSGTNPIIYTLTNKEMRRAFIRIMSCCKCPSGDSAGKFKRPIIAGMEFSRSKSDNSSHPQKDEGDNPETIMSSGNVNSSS
- assayRemarks: S1P1 (EDG-1) GTP[γ-35S] binding assay, membranes from CHO cells
- particulars: CHO cell membranes

testSmiles: CNCc1ccc(-c2noc(-c3ccc(-c4ccccc4)c(C(F)(F)F)c3)n2)cc1
EC50: < 0.1 µM

Look up EC50 for the entries below, preserving their order.
1. CCOc1ccc(-c2nc(-c3ccc(CN)cc3)no2)cc1C(F)(F)F
2. CCc1cc(-c2noc(-c3ccc(OC(C)C)c(-c4ccccc4)c3)n2)ccc1S(N)(=O)=O

Completion:
1: < 0.1 µM; 2: < 0.1 µM
